Listed here are compounds together with their documented IC50.
Biological target: Full-length (FL)-PRMT5-MEP50 enzyme complex (Homo sapiens (Human))
Test: PRMT5-MEP50 Enzyme Methylation Assay
Assay type: biochemical
Conditions: read-out: Enzyme Methylation Assay IC50_2
Return type: number; implicit unit µM.

Completed entries (count: 4):
{"compound": "CC1(C)CN(C[C@@H](O)[C@@H]2Cc3ccccc3CN2)C(=O)c2ccc(C(=O)N3C4COC5C4OCC53)cc21", "observed-result": 0.115}
{"compound": "CC[C@H]1CN(C[C@@H](O)[C@@H]2Cc3ccccc3CN2)C(=O)c2ccc(-c3ncnn3C)cc21 (single isomer, unassigned) [Example 6]", "observed-result": 5.08}
{"compound": "CC1(C)CN(C[C@H](O)[C@@H]2Cc3ccccc3CN2)C(=O)c2ccc(C(=O)N3C4CCC3COC4)cc21", "observed-result": 4.07}
{"compound": "CC1(C)CN(C[C@@H](O)[C@@H]2Cc3ccccc3CN2)C(=O)c2ccc(Br)cc21", "observed-result": 0.368}

Q: Look at this compound and give its reported IC50. CC1(C)CN(C[C@H](O)[C@@H]2Cc3ccccc3CN2)C(=O)c2ccc(C(=O)N3[C@@H]4CC[C@H]3C[C@@H](O)C4)cc21
Result: 15.3

Q: // same read-out, input: O=C1c2ccc(C(=O)N3C4CCC3COC4)cc2CCN1CC(O)[C@@H]1Cc2ccccc2CN1 (stereo partly shown)
Result: 6.28

Q: // same read-out, input: CC[C@H]1CN(C[C@@H](O)[C@@H]2Cc3ccccc3CN2)C(=O)c2ccc(Br)cc21 (single isomer, unassigned) [Example 4]
Result: 25.8

====

Biological target: PRMT5 (Homo sapiens (Human), UniProt O14744)
Sequence (O14744 whole entry): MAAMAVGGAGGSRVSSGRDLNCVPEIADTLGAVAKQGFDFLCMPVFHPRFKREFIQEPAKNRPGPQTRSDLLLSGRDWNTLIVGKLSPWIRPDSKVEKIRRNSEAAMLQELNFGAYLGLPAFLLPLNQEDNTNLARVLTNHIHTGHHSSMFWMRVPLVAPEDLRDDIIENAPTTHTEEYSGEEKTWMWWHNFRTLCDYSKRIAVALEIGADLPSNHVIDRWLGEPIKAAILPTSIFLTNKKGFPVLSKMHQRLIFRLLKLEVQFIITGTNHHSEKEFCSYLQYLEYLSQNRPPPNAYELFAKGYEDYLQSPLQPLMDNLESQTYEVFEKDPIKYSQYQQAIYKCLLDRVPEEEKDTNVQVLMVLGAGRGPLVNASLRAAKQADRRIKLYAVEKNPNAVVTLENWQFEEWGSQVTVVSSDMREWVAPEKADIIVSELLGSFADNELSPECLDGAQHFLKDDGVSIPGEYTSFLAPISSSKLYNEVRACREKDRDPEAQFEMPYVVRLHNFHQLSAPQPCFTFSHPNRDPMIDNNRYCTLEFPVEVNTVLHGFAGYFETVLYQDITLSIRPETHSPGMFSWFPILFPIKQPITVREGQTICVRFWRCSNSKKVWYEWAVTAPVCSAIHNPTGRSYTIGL
Sequence (Q9BQA1 whole entry partner): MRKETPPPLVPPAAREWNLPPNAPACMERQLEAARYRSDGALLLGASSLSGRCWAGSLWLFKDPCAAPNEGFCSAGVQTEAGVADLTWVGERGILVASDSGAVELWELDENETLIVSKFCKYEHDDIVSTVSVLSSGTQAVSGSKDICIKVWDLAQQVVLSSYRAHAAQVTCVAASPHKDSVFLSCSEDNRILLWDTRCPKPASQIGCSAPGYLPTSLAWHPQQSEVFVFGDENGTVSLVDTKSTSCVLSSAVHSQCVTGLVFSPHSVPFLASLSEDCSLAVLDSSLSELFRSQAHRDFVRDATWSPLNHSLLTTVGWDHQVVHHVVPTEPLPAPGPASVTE
Assay: PRMT5 Cell Target Engagement (TE) Assay
Type: cell-based
Settings: TE Assay EC50, MCF-7 cells, treated 3 days, nuclear SDMA by high content imaging; top concentration 10000 nM
measured-metric: log10 EC50 (log10 of the value in nM)
All values: log10 EC50 [nM].

Completed entries (count: 2):
{"molecule": "CC[C@H]1CN(C[C@@H](O)[C@@H]2Cc3ccccc3CN2)C(=O)c2ccc(C(=O)N3C4CCC3COC4)cc21 (single isomer, unassigned) [Example 13]", "log10 EC50": 1.48}
{"molecule": "CC1(C)CN(C[C@@H](O)[C@@H]2Cc3ccccc3CN2)C(=O)c2ccc(C(=O)N3[C@@H]4CC[C@H]3C[C@@H](O)C4)cc21 [Example 21]", "log10 EC50": 0.74}

Q: Look at this molecule and give its reported log10 EC50. CC1(C)CN(C[C@@H](O)[C@@H]2Cc3ccccc3CN2)C(=O)c2ccc(C(=O)N3C4CCC3COC4)cc21 [Example 19]
Result: 0.98

Q: // same read-out, input: CO[C@H]1C[C@H]2CC[C@@H](C1)N2C(=O)c1ccc2c(c1)C(C)(C)CN(C[C@@H](O)[C@@H]1Cc3ccccc3CN1)C2=O [Example 23]
Result: 0.33

Q: // same read-out, input: CCC1CN(CC(O)[C@@H]2Cc3ccccc3CN2)C(=O)c2ccc(C(=O)N3C4CCC3COC4)cc21 (stereo partly shown) [Example 12]
Result: 1.47

Q: // same read-out, input: CC[C@H]1CN(C[C@@H](O)[C@@H]2Cc3ccccc3CN2)C(=O)c2ccc(C(=O)N3C4CCC3COC4)cc21 (single isomer, unassigned) [Example 14]
Result: 0.40

Q: // same read-out, input: CO[C@@H]1C[C@H]2CC[C@@H](C1)N2C(=O)c1ccc2c(c1)C(C)(C)CN(C[C@@H](O)[C@@H]1Cc3ccccc3CN1)C2=O [Example 25]
Result: 0.58

====

Target: Full-length (FL)-PRMT5-MEP50 enzyme complex (Homo sapiens (Human), UniProt O14744)
Assay: PRMT5-MEP50 Enzyme Methylation Assay; on Enzyme Methylation Assay IC50 1: top concentration 100000 nM
Assay type: biochemical
Conditions: read-out: Enzyme Methylation Assay IC50_1
Listed here are compounds together with their documented pIC50.
Remember, pIC50 is on a log scale: it is -log10 of the molar concentration.

Completed entries (count: 10):
{"compound": "CC1(C)CN(C[C@@H](O)[C@@H]2Cc3ccccc3CN2)C(=O)c2ccc(N3C(=O)C4CCC3CC4)cc21", "target-or-test-system": "Full-length (FL)-PRMT5-MEP50 enzyme complex (Homo sapiens (Human), UniProt O14744)", "observed-result": 9.08}
{"compound": "O=C1c2ccc(C(=O)N3C4CCC3COC4)cc2CCN1CC(O)[C@@H]1Cc2ccccc2CN1 (some centres unmarked)", "target-or-test-system": "Full-length (FL)-PRMT5-MEP50 enzyme complex (Homo sapiens (Human), UniProt O14744)", "observed-result": 7.78}
{"compound": "CC1(C)CN(C[C@H](O)[C@@H]2Cc3ccccc3CN2)C(=O)c2ccc(C(=O)N3C4COC5C4OCC53)cc21", "target-or-test-system": "Full-length (FL)-PRMT5-MEP50 enzyme complex (Homo sapiens (Human), UniProt O14744)", "observed-result": 7.46}
{"compound": "CC[C@H]1CN(C[C@@H](O)[C@@H]2Cc3ccccc3CN2)C(=O)c2ccc(Br)cc21 (single isomer, unassigned) [Example 3]", "target-or-test-system": "Full-length (FL)-PRMT5-MEP50 enzyme complex (Homo sapiens (Human), UniProt O14744)", "observed-result": 6.39}
{"compound": "CC1(C)CN(C[C@@H](O)[C@@H]2Cc3ccccc3CN2)C(=O)c2ccc(Br)cc21", "target-or-test-system": "Full-length (FL)-PRMT5-MEP50 enzyme complex (Homo sapiens (Human), UniProt O14744)", "observed-result": 9.21}
{"compound": "CC[C@H]1CN(C[C@@H](O)[C@@H]2Cc3ccccc3CN2)C(=O)c2ccc(-c3ncnn3C)cc21 (single isomer, unassigned) [Example 7]", "target-or-test-system": "Full-length (FL)-PRMT5-MEP50 enzyme complex (Homo sapiens (Human), UniProt O14744)", "observed-result": 9.51}
{"compound": "CO[C@@H]1C[C@H]2CC[C@@H](C1)N2C(=O)c1ccc2c(c1)C(C)(C)CN(C[C@H](O)[C@@H]1Cc3ccccc3CN1)C2=O", "target-or-test-system": "Full-length (FL)-PRMT5-MEP50 enzyme complex (Homo sapiens (Human), UniProt O14744)", "observed-result": 7.61}
{"compound": "CO[C@H]1C[C@H]2CC[C@@H](C1)N2C(=O)c1ccc2c(c1)C(C)(C)CN(C[C@H](O)[C@@H]1Cc3ccccc3CN1)C2=O", "target-or-test-system": "Full-length (FL)-PRMT5-MEP50 enzyme complex (Homo sapiens (Human), UniProt O14744)", "observed-result": 7.95}
{"compound": "CC[C@H]1CN(C[C@@H](O)[C@@H]2Cc3ccccc3CN2)C(=O)c2ccc(-c3ncnn3C)cc21 (single isomer, unassigned) [Example 6]", "target-or-test-system": "Full-length (FL)-PRMT5-MEP50 enzyme complex (Homo sapiens (Human), UniProt O14744)", "observed-result": 8.42}
{"compound": "CC1(C)CN(C[C@@H](O)[C@@H]2Cc3ccccc3CN2)C(=O)c2ccc(-c3ncnn3C3CC3)cc21", "target-or-test-system": "Full-length (FL)-PRMT5-MEP50 enzyme complex (Homo sapiens (Human), UniProt O14744)", "observed-result": 9.33}

Q: Look at this compound and give its reported pIC50. CC1(C)CN(C[C@H](O)[C@@H]2Cc3ccccc3CN2)C(=O)c2ccc(C(=O)N3[C@@H]4CC[C@H]3C[C@@H](O)C4)cc21
Result: 7.30

Q: // same read-out, input: CCC1CN(CC(O)[C@@H]2Cc3ccccc3CN2)C(=O)c2ccc(C(=O)N3C4CCC3COC4)cc21 (some centres unmarked)
Result: 9.20

Q: // same read-out, input: CC[C@H]1CN(C[C@@H](O)[C@@H]2Cc3ccccc3CN2)C(=O)c2ccc(Br)cc21 (single isomer, unassigned) [Example 4]
Result: 7.34

Q: // same read-out, input: CC[C@H]1CN(C[C@@H](O)[C@@H]2Cc3ccccc3CN2)C(=O)c2ccc(Br)cc21 (single isomer, unassigned) [Example 1]
Result: 8.27

Q: // same read-out, input: CC1(C)CN(C[C@@H](O)[C@@H]2Cc3ccccc3CN2)C(=O)c2ccc(C(=O)N3[C@@H]4CC[C@H]3C[C@@H](O)C4)cc21
Result: 9.28

Q: // same read-out, input: CC1(C)CN(C[C@H](O)[C@@H]2Cc3ccccc3CN2)C(=O)c2ccc(Br)cc21
Result: 6.65

Q: // same read-out, input: CC1(C)CN(C[C@@H](O)[C@@H]2Cc3ccccc3CN2)C(=O)c2ccc(C(=O)N3C4COC5C4OCC53)cc21
Result: 9.46

Q: // same read-out, input: CCC1CN(C[C@@H](O)[C@@H]2Cc3ccccc3CN2)C(=O)c2ccc(-c3ncnn3C3CC3)cc21 (single isomer, unassigned)
Result: 9.40

Q: // same read-out, input: CC[C@H]1CN(C[C@@H](O)[C@@H]2Cc3ccccc3CN2)C(=O)c2ccc(C(=O)N3C4CCC3COC4)cc21 (single isomer, unassigned) [Example 16]
Result: 7.75

Q: // same read-out, input: CC[C@H]1CN(C[C@@H](O)[C@@H]2Cc3ccccc3CN2)C(=O)c2ccc(C(=O)N3C4CCC3COC4)cc21 (single isomer, unassigned) [Example 13]
Result: 9.44

Q: // same read-out, input: CC[C@H]1CN(C[C@@H](O)[C@@H]2Cc3ccccc3CN2)C(=O)c2ccc(Br)cc21 (single isomer, unassigned) [Example 2]
Result: 9.68

Q: // same read-out, input: CC1(C)CN(C[C@@H](O)[C@@H]2Cc3ccccc3CN2)C(=O)c2ccc(C(=O)N3C4CCC3COC4)cc21
Result: 9.28

Q: // same read-out, input: CC[C@H]1CN(C[C@@H](O)[C@@H]2Cc3ccccc3CN2)C(=O)c2ccc(C(=O)N3C4CCC3COC4)cc21 (single isomer, unassigned) [Example 14]
Result: 9.62

Q: // same read-out, input: CO[C@H]1C[C@H]2CC[C@@H](C1)N2C(=O)c1ccc2c(c1)C(C)(C)CN(C[C@@H](O)[C@@H]1Cc3ccccc3CN1)C2=O
Result: 9.30

Q: // same read-out, input: O=C1c2ccc(-c3ncnn3C3CC3)cc2C2(CCC2)CN1C[C@@H](O)[C@@H]1Cc2ccccc2CN1
Result: 9.54

Q: // same read-out, input: CC1(C)CN(C[C@H](O)[C@@H]2Cc3ccccc3CN2)C(=O)c2ccc(C(=O)N3C4CCC3COC4)cc21
Result: 7.89

The measurements presented in this section are drawn from patent US11098059B2.
